test system: MDA-MB-231 breast; assay: NCI tumour cell line growth inhibition, 48 h; in the data active = GI50 below about 0.43 µM; inactive = the rest
Where a SMILES comes first, the peptide text is derived from it. Bridges are numbered along the chain shown (N, C = ends). [ ]: non-standard residue; d: D form. aThr = C[C@H](O)[C@H](N)C(=O)O
Mark one answer only. Choices: active, inactive

* OCC1CC[N-]CC1.OCC1CC[N-]CC1.[Cl][Pt+2]([Cl])([Cl])[Cl] | inactive

What was the test verdict on O=C1CC(c2cccc(Cl)c2)Nc2ccc(N3CCCC3)cc21 (configuration not stated) ?
inactive

What was the test verdict on CC(C)C[C@@H]1NC(=O)[C@@H]2CCCN2C(=O)[C@@H]2CCCN2C(=O)[C@H](CC(C)C)NC(=O)[C@H](CO)NC(=O)[C@H](CCCCN)NC(=O)[C@H]([C@H](C)O)NC(=O)[C@@H]2CSSC[C@@H](NC1=O)C(=O)N[C@@H](Cc1ccccc1)C(=O)N1CCC[C@H]1C(=O)N[C@@H](CC(=O)O)C(=O)NCC(=O)N[C@@H](CCCN=C(N)N)C(=O)N2 (cyclo(C[aThr]KSLPPL[dC]FPDGR); disulfide 1-9) ?
inactive

What was the test verdict on CCN(CC)c1ccc2nc3ccc(=[N+](CC)CC)cc-3oc2c1 ?
active

What was the test verdict on COCCOC1=C(Cl)C(=O)c2ccccc2C1=O ?
inactive

----------
Entries and their measured TGI follow.
system: HT29 colon; experiment: NCI tumour cell line growth inhibition, 48 h
Give the value in µM but do not write µM after it.

Solved entries (count: 3):
* CNCc1ccc(-c2cc(-c3nc(-c4ccc(S(=O)(=O)C(C)C)cc4)cnc3N)on2)cc1 | 1.83
* CCc1ccc(Nc2cc(C)c3ccc(O)cc3n2)cc1 | 12.5
* O=C(c1ccccc1)[C@H]1Nc2ccc(Cl)cc2[C@H]2CCC[C@@H]12 | 62.2

Consider the record given below.
Per the record, C[C@H]1CC[C@@]2(OC1)O[C@H]1C[C@H]3[C@@H]4CC[C@@H]5C[C@@H](OC6OC(CO)C(O)C(O)C6OC6OC(CO)C(O)C(O)C6O)CC[C@]5(C)[C@H]4CC[C@]3(C)[C@H]1[C@@H]2C (stereo partly drawn) has TGI of 3.68

----------
test system: UO-31 renal; experiment: NCI tumour cell line growth inhibition, 48 h
Parameter: TGI

Solved entries (count: 4):
• OCCCCC#Cc1ccccc1C#Cc1cccc(C(F)(F)F)c1 = 31.6 µM
• O=C(CCc1cc(O)cc(O)c1)NCCc1cc(O)cc(OCc2ccccc2)c1 = > 100 µM
• CN1C(=O)CC(=O)N1/C(=C/c1ccccc1)c1ccccc1 = 32 µM
• COc1ccc2nc3c(c(N)c2c1)C1CCC3C1(C)C (stereo not given) = > 100 µM

Per the record, COc1ccc(C(O)c2cc3c(N)c(C(=O)Nc4cccc5ccccc45)sc3nc2C)cc1 (stereo not given) has TGI of > 75.4 µM

----------
system: UACC-257 melanoma; assay: NCI tumour cell line growth inhibition, 48 h
Parameter: log10 of TGI (log10 of the value in µM)
Note: values are log10 of TGI expressed in µM.

Per the record, O=C(c1cccs1)c1c(C(F)(F)F)n([O-])c2cc(Cl)c(Cl)cc2[n+]1=O has log10 of TGI of 0.59

Per the record, CN=c1sc2c(n1C)C(=O)c1ccccc1C2=O has log10 of TGI of 0.66

Per the record, COc1cc(/C=C/c2cc(/C=C/c3ccc(O)c(OC)c3)n(C(=O)c3ccccc3Br)n2)ccc1O has log10 of TGI of 1.60

Per the record, COc1ccc2nc3c(c(N)c2c1)C1CCC3C1(C)C (configuration not stated) has log10 of TGI of 1.61

Per the record, COc1ccc(Nc2cnc3cc(N)cc(N)c3n2)cc1 has log10 of TGI of 1.66

Per the record, CCOC(=O)/C(=C/c1ccccn1)C(=O)c1ccccc1 has log10 of TGI of 1.45

Per the record, Oc1ccc(C(=C(Br)c2ccccc2)c2ccc(O)cc2)cc1 has log10 of TGI of 1.40
